# credit: patent US20060094649A1

Measured Target: HLA-A*3101 (human)
Protocol Text: competition vs 125I probe, purified HLA
Non-standard residues stand in square brackets, D forms with d. No end group written: not given here. Abu = CC[C@H](N)C(=O)O
Property: IC50; scope: individual binders

- Binder: "SV[Abu]MGGMNK [p53.240.V2B3K9]"
  Value Units: "µM"
  IC50: 9
- Binder: "SS[Abu]MGGMNRK [p53.240.B3K10]"
  Value Units: "µM"
  IC50: 0.72
